# maps each entry to its TGI
- Test system: UACC-257 melanoma
- protocol summary: NCI tumour cell line growth inhibition, 48 h

Query: What measured TGI goes with "Nc1nc(N)c2cc(Sc3ccc(Cl)cc3)ccc2n1" ?
Response: 5.72 µM

Query: What measured TGI goes with "O=C(Nn1c(-c2ccccc2)nc2ccccc2c1=O)c1ccc([N+](=O)[O-])cc1" ?
Response: > 100 µM

Query: What measured TGI goes with "O=C(O)c1ccc(NCn2nc(-c3ccccc3O)oc2=S)cc1O" ?
Response: > 100 µM

Query: What measured TGI goes with CC(C)(Cl)C(Br)CCC(=CCBr)CBr (mixture of isomers) ?
Response: 14.2 µM

Query: What measured TGI goes with "O=C(CC(O)(C(F)(F)Cl)C(F)(F)Cl)CC(O)(C(F)(F)Cl)C(F)(F)Cl" ?
Response: 6.17 µM

Others:
Query: What measured TGI goes with "CN1C[C@@H]2CC(=O)CC[C@@H]2C[C@H]1C#N" ?
Response: > 100 µM

Query: What measured TGI goes with "O=C(/C=C/c1cccnc1)c1ccccc1" ?
Response: 22.7 µM

Query: What measured TGI goes with "Cn1cnc([N+](=O)[O-])c1Sc1nccn1-c1ccccc1" ?
Response: > 100 µM
